Source of measurements: the supplement of paper PMC8728848

Reported glycan array binding signal (z-score) by item:
- STUDY SYSTEM: Neu5Ac(a2-6)Gal(b1-4)GlcNAc(b1-3)Gal(b1-4)GlcNAc(b1-3)GalNAc
- PROCEDURE TEXT: glycan array binding signal (z-score within array); higher = stronger binding
- TEST CONDITIONS: glycan notation: IUPAC condensed, linker removed
Only a selection was taken, and the strongest signals are over-represented in it overall.

BINDER: XTP3-B-MRH2 (Homo sapiens), Q96DZ1 (protein) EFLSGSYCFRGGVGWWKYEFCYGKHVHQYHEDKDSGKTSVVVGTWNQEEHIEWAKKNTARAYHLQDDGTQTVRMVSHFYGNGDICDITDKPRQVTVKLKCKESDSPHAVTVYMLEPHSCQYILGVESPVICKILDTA
glycan array binding signal (z-score): -0.693

BINDER: SP16663B-bot-321-25-321 (Bacteroides ovatus) (protein) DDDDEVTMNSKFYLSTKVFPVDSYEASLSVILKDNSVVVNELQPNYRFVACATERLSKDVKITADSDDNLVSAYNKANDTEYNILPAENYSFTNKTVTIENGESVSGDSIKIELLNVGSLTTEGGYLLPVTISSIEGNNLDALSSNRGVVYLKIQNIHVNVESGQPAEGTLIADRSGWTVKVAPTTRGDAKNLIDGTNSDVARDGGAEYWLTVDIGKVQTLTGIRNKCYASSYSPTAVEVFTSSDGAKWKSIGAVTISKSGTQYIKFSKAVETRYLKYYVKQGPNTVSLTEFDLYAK
glycan array binding signal (z-score): -0.34

BINDER: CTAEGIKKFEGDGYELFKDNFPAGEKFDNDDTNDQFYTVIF [MUB40 (Lactobacillus reuteri)]
glycan array binding signal (z-score): 3.03

BINDER: PpFlo1 (Pichia pastoris) (protein) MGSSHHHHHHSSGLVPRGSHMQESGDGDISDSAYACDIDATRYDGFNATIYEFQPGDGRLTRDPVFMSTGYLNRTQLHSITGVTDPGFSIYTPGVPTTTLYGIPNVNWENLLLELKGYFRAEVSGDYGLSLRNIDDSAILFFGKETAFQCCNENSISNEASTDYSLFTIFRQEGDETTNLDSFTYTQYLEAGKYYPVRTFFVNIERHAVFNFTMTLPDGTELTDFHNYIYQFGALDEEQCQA
glycan array binding signal (z-score): -0.424
